Test: soluble on expression in E. coli; label from the status in PepcDB or PDB records
reported.endpoint: soluble on expression in E. coli

>  <sequence.input>
MLFCPLLLIFLIANSNGEPLPPDMKDLQNHLDTFQKAVDTGDKKALREMMPVNQRISEEKLDEFIKTRKSFKMTAKSAQATSSGITGKVDYAIGKATLLLDVVLEKSSSSPSAYKFVSISKQSIPSQRREIPDCFYTLLIMCPYDLIVALAQTAENVLKG

>  <reported.endpoint>
soluble on expression in E. coli

>  <result>
not soluble

$$$$
>  <sequence.input>
ANKNKGFEGVAWDPRRQQLLLGEERPPALYTWKSDGSNVLKGDKQSLLSRALDMRNLSSLSIDPRTGHMLALSADSHMLLEVDEQGNQVSFMTLLGGMNGLKD

>  <reported.endpoint>
soluble on expression in E. coli

>  <result>
not soluble

$$$$
>  <sequence.input>
MNFNGSLFERLADKTQKKTDLNEEERITASIATHLAKLLGTRAGSVNTLPDYGLPELNNASLSAHDTVRQSRLAIEKAIRDYEPRLSEVHVMSDESSWCVLKRTFSIDASLDMNGVKKTVVFSIAVAGDGHVILN

>  <reported.endpoint>
soluble on expression in E. coli

>  <result>
not soluble

$$$$

* * *

Assay: soluble on expression in E. coli; label from the status in PepcDB or PDB records

>  <sequence.input>
GAMAQVPTDPGYFSVLLDVKHFSPEEISVKVVGDHVEVHARHEERPDEHGFIAREFHRRYRLPPGVDPAAVTSALSPEGVLSIQATPASAQASLPSPPAAK

>  <soluble on expression in E. coli>
soluble

$$$$
>  <sequence.input>
MIMQKRLLNRNSSVVKSRNCLARHQHESSISKLHVSLRLHRCLRPIVRFDFLHNAGSKVCSQNSCPSPQLHVGTMALFHTVFILWPHFCGILWTVHEKLYNYLLSIEVY

>  <soluble on expression in E. coli>
soluble

$$$$
>  <sequence.input>
MAHHHHHHMFSRGAAATAMAKVSRLVSPRLRIIHRDYLTRRGGRTHQRCSAVAVDYTPTYFATYKSDPGQCPRLIDAEAVHGDEQAFWSARRDFYRGGASRSYYPAWDRQAQALIMLTREVPRIPQEAAFRLFTLGLKMMLLPRLVAGVELMLPSWVTMNAESVLNEGLEGKVAEADGDGKATGAAADAAALPSASSAGANEDSGSANAEKR

>  <soluble on expression in E. coli>
soluble

$$$$
>  <sequence.input>
MKIGVLGLQGAVREHVRAIEACGAEAVIVKKSEQLEGLDGLVLPGGESTTMRRLIDRYGLMEPLKQFAAAGKPMFGTCAGLILLAKRIVGYDEPHLGLMDITVERNSFGRQRESFEAELSIKGVGDGFVGVFIRAPHIVEAGDGVDVLATYNDRIVAARQGQFLGCSFHPELTDDHRLMQYFLNMVKEAKMASSLK

>  <soluble on expression in E. coli>
soluble

$$$$

* * *

Test: soluble on expression in E. coli; label from the status in PepcDB or PDB records
reported.endpoint: soluble on expression in E. coli

Example entries begin here.
>  <sequence.input>
MGSDKIHHHHHHMADTTPDVETDKCDDLLESLRRGRPAAGQDPVKRSQIIDGARRVFIEKGFEAASMNDITREAGVSKGTIYVYFANKEELFEALIEEERGTIFKNMYDMLDRADDLRQTLVKFGKVLSMKITSARVIQAQRTVIGASDRIPDMGARFYERGPKRGHDKVVKFLNAAIERGLLKIDDVDLAAYQFTELCLAGLFRQCIFAYRTKAPSQEEIDHIVRSGVDMFLKNYGTEQLAEEESHQMIALEAKA

>  <result>
not soluble

$$$$
>  <sequence.input>
MNLKDKILGVAKELFIKNGYNATTTGEIVKLSESSKGNLYYHFKTKENLFLEILNIEESKWQEQWKKEQIKCKTNREKFYLYNELSLTTEYYYPLQNAIIEFYTEYYKTNSINEKMNKLENKYIDAYHVIFKEGNLNGEWSINDVNAVSKIAANAVNGIVTFTHEQNINERIKLMNKFSQIFLNGLSKHHHHHH

>  <result>
soluble

$$$$
>  <sequence.input>
MGSDKIHHHHHHMGRRLRVEYLGAMYHVVQRGNNREFIFGRPDERDYLIEQVGNAVKVDGVTVFAYVVMSNHYHLLLRTDGEFLSKVMHRVNTRYSRFFNCDSGRDRTGVVFEGRYKAILVQNDDYLLSLVRYIHRNPLRAGIVSRFCDYRWSSDACYRQQGNGPGGGDFVNCDLILRMFSDKKQIALREYKRFMENDDGKDWENIPCIGDDSFAQLAEPRKEKAGRVSLDEILINTGVDNEEFQLIKQGSRKRLLQKYKIAFTGEAIGQGYTMREIGQHIKLSHVAISHLFNSKQDSK

>  <result>
not soluble

$$$$
>  <sequence.input>
GMRQGAGLGYRRDLAEGFLQLRNNDRIQFMEIAPENWIKMGGFARYQFDKVAEKIPILIHGLSLSLGGQAPLDKELLSSIKAMIKQYNTPFFSDHLSFCECDGHLYDLLPMPFTDEAVKHTAARIREVQDFLEIQISVENTSYYLHSETSTMNEVEFLNAIVQEANCGIHLDVNNIYVNAVNHGLLDPHVFIDNVDLKRVNYIHIAGHDDEHAATEVQIQTSESFNKIKGDLRHLPPLLVDTHGENVKGTVWDLLEYTYARLSHMPPTLLERDFNFPPFEKLCKEVDIIHQLQQKYVKKRGLSWLKI

>  <result>
soluble

$$$$
>  <sequence.input>
MSLNDDYPVVLAAPTGRASKRLQESTGLEAMTIHRLIGWNQDTKPEDILENEINARLIIIDEMSMVDTWLFHQFLSAVPLDAQLIFVGDEDQLPSVGPGQVFKDLIESKAIPRVNLTEVYRQQDGSSIIELAHRMKLGQKIDITQRFHDRSFINCQANQIPTVVEKVVTSAVNKGYTMADIQVLAPMYKGNAGIKRLNQVLQDILNPKKKDTREIEFGDVVFRKGDKVLQLVNRPNDNIFNGDIGVIVGIFWAKENALNKDVLVVDFEGNEITFTKQDMMELTHAYCTSIHKSQGSEFPIVIMPIVKQYFRMLQRPILYTGLTRAKTSLVLLGDPEAFDIGLKTNGQARLTQLCTLLKNYFNSEGHHHHHH

>  <result>
not soluble

$$$$

Next, consider the following sequence.
Query block: Looking for the measured soluble on expression in E. coli of "MAHHHHHHSLIKTEFKGNNIPYEYAAGADVSDSINGNPIKSFPFEVIELPEGTKYLAWSLIDYDAIPVCGFAWIHWSVANVSVSGNSISIKADLSRTKGDYVQGKNSFTSGLLAEDFSEIENHYVGPTPPDQDHQYELTVYALDHSLNLKNGFYLNEFLKEVNQHKIDQTSINLIGRKEG" , can you help?
Result block: not soluble

* * *

Test: soluble on expression in E. coli; label from the status in PepcDB or PDB records
reported.endpoint: soluble on expression in E. coli

Recorded soluble on expression in E. coli, per entry:
>  <sequence.input>
MSFTVIIPARFASSRLPGKPLADIKGKPMIQHVFEKALQSGASRVIIATDNENVADVAKSFGAEVCMTSVNHNSGTERLAEVVEKLAIPDNEIIVNIQGDEPLIPPVIVRQVADNLAKFNVNMASLAVKIHDAEELFNPNAVKVLTDKDGYVLYFSRSVIPYDRDQFMNLQDVQKVQLSDAYLRHIGIYAYRAGFIKQYVQWAPTQLENLEKLEQLRVLYNGERIHVELAKEVPAVGVDTAEDLEKVRAILAANGSHHHHHH

>  <reported.endpoint>
soluble on expression in E. coli

>  <result>
soluble

$$$$
>  <sequence.input>
MDVEKLNLDNIISRLLEVRGSKPGKNVQLTESEIKGLCQKSREIFLSQPILLELEAPLKICGDVHGQYYDLLRLFEYGGFPPESNYLFLGDYVDRGKQSLETICLLLAYKIKYPENFFLLRGNHECASINRIYGFYDECKRRYNIKLWKTFTDCFNCLPVAAIIDEKIFCCHGGLSPDLQSMEQIRRIMRPTDVPDQGLLCDLLWSDPDKDVTGWGENDRGVSFTFGPEVVAKFLHKHDLDLICRAHQVVEDGYEFFAKRQLVTLFSAPNYCGEFDNAGSMMTVDETLMCSFQILKPADKKKYPYGAGGVGSNRPVTPPRNAPAAQPKKGAKK

>  <reported.endpoint>
soluble on expression in E. coli

>  <result>
not soluble

$$$$
>  <sequence.input>
SITKPQNKSAKLVDGELLVKASVESFGLEDEKYWFLVCCELSNGKTRQLKRYYQDFYDLQVQLLDAFPAEAGKLRDAGGQWSKRIMPYIPGPVPYVTNSITKKRKEDLNIYVADLVNLPDYISRSEMVHSLFVVLNNGFDREFERDENGSHHHHHH

>  <reported.endpoint>
soluble on expression in E. coli

>  <result>
soluble

$$$$
>  <sequence.input>
MMKLRIEIDGNLEETEIVIKTPTLTDEIADLQRLLQESKAPRLTFYKGTGEYYLDLSEILFFETEGSKIYAHNQKEAYEVRLKLYELESILPRYFNRVSKSTIANIRQIYSVDKSFSGTGTISFYQTHKEVHVSRHYQSLLKENLRNMR

>  <reported.endpoint>
soluble on expression in E. coli

>  <result>
not soluble

$$$$

Query block: Form field: reported soluble on expression in E. coli of "MTKNTSYHYSIIIPHKNTPRLLERCLCSIPTWDEIQIIIIDDNSNSESVDFSHFPGNGRKNTEVLFTKEGKGAGYARNIGLSHARGKWIIFADADDFFTADCFTILNEYMDSPHEVIYFNVRFVMSDNPSQESRRGTYYTNFFNDVNPENKLRYQSQVPWGKMIRRSFLSTFHIQFDETRIANDVYFSCLVGIYAPKATTDRRIIYYCTESGQSLAMSKQDRESLIIRFNASMKCNRLLRQEKIHYYLSPLPWCIPSAKTKEWLPAKYFFEYLFFFRLQAFKELYYAFSAILSHMNEPATKETDNQCNKKTTNLRE"
Result block: not soluble

Query block: # input sequence: "MGSDKIHHHHHHVTDHGFSFCAHAEQYAIIGSLSQLETSDNRDCDIRRPALNRCMAEKGTLRPEAAQIFQRLEALGLKQRELAQALGIEENKISKVRAGERQFKGAELLAAYEWLDQREAEAHMPRLSRVAAVGQQVIPATPVEGEVVQIQKLDLSLSMGPGTLIDGYVESELVSFDLGFVRLFTRAASDHLRLVTGIGDSMEPTLKWGDLILIDTTDRMLSKQDGIYWINLYGAAGIKRLRAIGPRTILVKSDNPGVDDQEVEAEDLRIEGRAIWATRGL" ; wanted: its soluble on expression in E. coli
Result block: not soluble
